- testTarget: ERBB4 (Homo sapiens)
- Construct: host or cells: U2OS
- Sequence (Q15303 26-1308): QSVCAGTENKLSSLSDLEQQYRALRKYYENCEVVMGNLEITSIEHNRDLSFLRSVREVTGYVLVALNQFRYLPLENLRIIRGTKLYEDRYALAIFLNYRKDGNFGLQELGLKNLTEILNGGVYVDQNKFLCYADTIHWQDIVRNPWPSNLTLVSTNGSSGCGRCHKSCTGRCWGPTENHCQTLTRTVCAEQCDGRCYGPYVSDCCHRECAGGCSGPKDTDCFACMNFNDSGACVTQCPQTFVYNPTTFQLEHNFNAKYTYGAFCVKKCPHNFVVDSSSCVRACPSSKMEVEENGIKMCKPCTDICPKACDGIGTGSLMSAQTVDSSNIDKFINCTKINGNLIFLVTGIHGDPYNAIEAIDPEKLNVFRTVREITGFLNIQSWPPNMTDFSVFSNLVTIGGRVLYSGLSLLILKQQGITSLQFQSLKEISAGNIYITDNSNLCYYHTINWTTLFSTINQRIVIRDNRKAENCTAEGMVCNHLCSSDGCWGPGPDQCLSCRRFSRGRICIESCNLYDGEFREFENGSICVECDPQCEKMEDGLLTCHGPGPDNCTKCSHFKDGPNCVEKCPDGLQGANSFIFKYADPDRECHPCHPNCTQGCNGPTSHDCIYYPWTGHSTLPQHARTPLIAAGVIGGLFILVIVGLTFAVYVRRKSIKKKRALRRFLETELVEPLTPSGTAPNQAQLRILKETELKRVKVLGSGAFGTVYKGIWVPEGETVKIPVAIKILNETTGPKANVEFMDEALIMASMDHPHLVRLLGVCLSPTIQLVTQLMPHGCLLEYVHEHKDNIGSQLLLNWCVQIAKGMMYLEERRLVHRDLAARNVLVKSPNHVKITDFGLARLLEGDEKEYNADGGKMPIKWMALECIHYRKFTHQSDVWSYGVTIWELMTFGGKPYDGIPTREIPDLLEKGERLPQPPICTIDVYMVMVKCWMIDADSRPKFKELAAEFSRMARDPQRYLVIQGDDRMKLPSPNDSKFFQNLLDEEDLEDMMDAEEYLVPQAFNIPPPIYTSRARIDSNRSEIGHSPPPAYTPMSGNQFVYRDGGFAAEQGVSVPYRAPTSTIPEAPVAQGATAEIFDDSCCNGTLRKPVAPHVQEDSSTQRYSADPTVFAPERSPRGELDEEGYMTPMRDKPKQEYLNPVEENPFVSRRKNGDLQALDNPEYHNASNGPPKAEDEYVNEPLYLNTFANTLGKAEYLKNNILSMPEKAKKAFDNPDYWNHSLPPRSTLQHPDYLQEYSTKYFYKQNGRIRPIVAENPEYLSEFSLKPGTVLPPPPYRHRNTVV
- testDetails: PathHunter ERBB4/ERBB4 dimerization assay, dose-response curves
- Format: cell-based
- cond: U2OS ERBB4/ERBB4 dimerization cell line, 6 hours, compound alone
// classify: if (EC50 < 10 µM) 1 else -1

- CC(C)n1c(SC(C(=O)NC2CC2)c2ccccc2)nc2sc3c(c2c1=O)CCC3 (centres unmarked) [Compound 4]: 1
- O=C1NCCCCC1Sc1nc2sc3c(c2c(=O)n1C1CCCC1)CCCC3 (centres unmarked) [Compound 5]: 1
- Cc1sc2nc(SC(C)C(=O)Nc3sccc3C(N)=O)n(CC(C)C)c(=O)c2c1C (centres unmarked) [Compound 6]: 1
- Cc1sc2cc(SCC(=O)NC(C)(C#N)C(C)C)n(C3CCCC3)c(=O)c2c1C (centres unmarked) [Compound 8]: -1
- CC(Sc1nc2ccccc2c(=O)n1C1CCCC1)c1nc2ccccc2n1C(F)F (centres unmarked) [Compound 7]: -1

====

- testTarget: ERBB4 (Homo sapiens)
- Construct: host or cells: U2OS
- testDetails: PathHunter ERBB4/ERBB4 dimerization assay, compounds on top of 0.1 μM NRG-1 (identification of modulators)
- Assay type: cell-based
- cond: on top of 0.1 μM NRG1, relative to NRG1 (set as 100%)
attributeMeasured: Emax (%)

• Cc1sc2nc(SC(C)C(=O)Nc3sccc3C(N)=O)n(CC(C)C)c(=O)c2c1C (stereo not drawn) = 112
• CC(=O)c1ccc(NC(=O)C(C)Sc2nc3ccccc3c(=O)n2C2CCCC2)cc1 (stereo not drawn) = 126
• CC(Sc1nc2ccccc2c(=O)n1C1CCCC1)C(=O)N(C)c1ccccc1 (stereo not drawn) = 36

====

molecules and their reported Emax
- testTarget: ERBB4 (Homo sapiens)
- Construct: host or cells: U2OS
- testDetails: PathHunter ERBB4/ERBB4 dimerization assay, compounds on top of 0.1 μM NRG-1 (identification of modulators)
- Type: cell-based
- cond: on top of 0.1 μM NRG1, relative to NRG1 (set as 100%)
attributeMeasured: Emax (%)

- CC(Sc1nc2ccccc2c(=O)n1C1CCCC1)c1nc2ccccc2n1C(F)F (centres unmarked) [Compound 7]: 139
- Cc1sc2cc(SCC(=O)NC(C)(C#N)C(C)C)n(C3CCCC3)c(=O)c2c1C (centres unmarked) [Compound 8]: 174
- O=C(NC1CC1)C(Sc1nc2ccccc2c(=O)n1C1CCCC1)c1ccccc1 (centres unmarked) [Compound 1]: 256
- CC(C)n1c(SC(C(=O)NC2CC2)c2ccccc2)nc2sc3c(c2c1=O)CCC3 (centres unmarked) [Compound 4]: 192
- O=C1NCCCCC1Sc1nc2sc3c(c2c(=O)n1C1CCCC1)CCCC3 (centres unmarked) [Compound 5]: 63

====

- testTarget: ERBB4 (Homo sapiens)
- Construct: host or cells: U2OS
- testDetails: PathHunter ERBB4/ERBB4 dimerization assay, dose-response curves
- Type: cell-based
- cond: U2OS ERBB4/ERBB4 dimerization cell line, 6 hours, compound alone
attributeMeasured: EC50 (µM)

• CC(=O)c1ccc(NC(=O)C(C)Sc2nc3ccccc3c(=O)n2C2CCCC2)cc1 (stereo not drawn) = 10.9
• O=C(NC1CC1)C(Sc1nc2ccccc2c(=O)n1C1CCCC1)c1ccccc1 (stereo not drawn) = 8.92
• CC(Sc1nc2ccccc2c(=O)n1C1CCCC1)C(=O)N(C)c1ccccc1 (stereo not drawn) = 15.8

====

molecules and their reported half-life at 10 µM
- testDetails: Metabolic stability, mouse liver microsomes
- Format: in vitro ADME
- cond: mouse, liver microsomes, pH 7.4, mouse liver microsomes; read-out: t1/2 mouse
- Experimental: A mixture of 713 μL milliQ water (Millipore, MA, USA), 200 μL 0.5 M phosphate buffer (pH 7.4, BD Diagnostic Systems, MD, USA), 50 μL NADPH regenerating system solution A (BD Biosciences, CA, USA), 10 μL NADPH regenerating system solution B (BD Biosciences, CA, USA) and 2 μL compound (5 mM in DMSO) was prepared and heated for 5 min at 37° C. […]
attributeMeasured: half-life at 10 µM

- Cc1sc2nc(SC(C)C(=O)Nc3sccc3C(N)=O)n(CC(C)C)c(=O)c2c1C (stereo not shown): 8 to 12 min
- CC(Sc1nc2ccccc2c(=O)n1C1CCCC1)c1nc2ccccc2n1C(F)F (stereo not shown): 14 to 15 min
- CC(C)n1c(SC(C(=O)NC2CC2)c2ccccc2)nc2sc3c(c2c1=O)CCC3 (stereo not shown): 8 to 12 min
- O=C(NC1CC1)C(Sc1nc2ccccc2c(=O)n1C1CCCC1)c1ccccc1 (stereo not shown): 14 to 15 min

====

- testDetails: Chemical stability
- Type: physicochemical
- cond: 37° C. and pH 7.4 for 24 hours (FIG. 11)
attributeMeasured: chemical stability

* CC(Sc1nc2ccccc2c(=O)n1C1CCCC1)c1nc2ccccc2n1C(F)F (stereo not shown) | chemically stable
* O=C(NC1CC1)C(Sc1nc2ccccc2c(=O)n1C1CCCC1)c1ccccc1 (stereo not shown) | chemically stable
* CC(C)n1c(SC(C(=O)NC2CC2)c2ccccc2)nc2sc3c(c2c1=O)CCC3 (stereo not shown) | chemically stable
* Cc1sc2nc(SC(C)C(=O)Nc3sccc3C(N)=O)n(CC(C)C)c(=O)c2c1C (stereo not shown) | chemically stable

====

- testTarget: ERBB4 (Homo sapiens)
- Construct: host or cells: U2OS
- testDetails: PathHunter ERBB4/ERBB4 dimerization assay, compounds on top of 0.1 μM NRG-1 (identification of modulators)
- Assay type: cell-based
- cond: on top of 0.1 μM NRG1
compounds and their reported EC50
attributeMeasured: EC50

- O=C1NCCCCC1Sc1nc2sc3c(c2c(=O)n1C1CCCC1)CCCC3 (stereo not shown): ~3.36 µM
- O=C(NC1CC1)C(Sc1nc2ccccc2c(=O)n1C1CCCC1)c1ccccc1 (stereo not shown): ~1.6 µM
- Cc1sc2nc(SC(C)C(=O)Nc3sccc3C(N)=O)n(CC(C)C)c(=O)c2c1C (stereo not shown): ~13.9 µM
- CC(C)n1c(SC(C(=O)NC2CC2)c2ccccc2)nc2sc3c(c2c1=O)CCC3 (stereo not shown): ~21.5 µM

====

compounds and their reported t1/2 mouse
- testDetails: Metabolic stability, mouse liver microsomes
- Type: in vitro ADME
- cond: mouse liver microsomes
attributeMeasured: t1/2 mouse

- CC(Sc1nc2ccccc2c(=O)n1C1CCCC1)c1nc2ccccc2n1C(F)F (stereo not shown): 14 min
- O=C(NC1CC1)C(Sc1nc2ccccc2c(=O)n1C1CCCC1)c1ccccc1 (stereo not shown): 15 min
- Cc1sc2nc(SC(C)C(=O)Nc3sccc3C(N)=O)n(CC(C)C)c(=O)c2c1C (stereo not shown): 8 min
- CC(C)n1c(SC(C(=O)NC2CC2)c2ccccc2)nc2sc3c(c2c1=O)CCC3 (stereo not shown): 12 min

====

- testTarget: ERBB4 (Homo sapiens)
- Construct: host or cells: U2OS
- testDetails: PathHunter ERBB4/ERBB4 dimerization assay, dose-response curves
- Assay type: cell-based
- cond: U2OS ERBB4/ERBB4 dimerization cell line, 6 hours, compound alone; NRG-1 = 100
attributeMeasured: Emax (%)

- CC(=O)c1ccc(NC(=O)C(C)Sc2nc3ccccc3c(=O)n2C2CCCC2)cc1 (centres unmarked): 9.48
- CC(Sc1nc2ccccc2c(=O)n1C1CCCC1)C(=O)N(C)c1ccccc1 (centres unmarked): 14.3
- Cc1sc2nc(SC(C)C(=O)Nc3sccc3C(N)=O)n(CC(C)C)c(=O)c2c1C (centres unmarked): 10.3
- Cc1sc2cc(SCC(=O)NC(C)(C#N)C(C)C)n(C3CCCC3)c(=O)c2c1C (centres unmarked): 18.4
- CC(Sc1nc2ccccc2c(=O)n1C1CCCC1)c1nc2ccccc2n1C(F)F (centres unmarked): 9.76
- CC(C)n1c(SC(C(=O)NC2CC2)c2ccccc2)nc2sc3c(c2c1=O)CCC3 (centres unmarked): 16.9
- O=C1NCCCCC1Sc1nc2sc3c(c2c(=O)n1C1CCCC1)CCCC3 (centres unmarked): 17.7
- O=C(NC1CC1)C(Sc1nc2ccccc2c(=O)n1C1CCCC1)c1ccccc1 (centres unmarked): 33.1

Values compiled from patent US20240002351A1.
